This collection of values is drawn from paper PMC8132342.

# System: CQ-sensitive P. falciparum (3D7 strain)
# assay_method_text: Antimalarial activity, 3H-hypoxanthine uptake inhibition, 3D7 strain
# Assay type: cell-based
# test_parameters: Plasmodium falciparum; pure compounds; P. falciparum 3D7 strain; mean ± S.D. of three determinations; read-out: IC50 3D7
pIC50: −log10 of the molar value.
property: pIC50

molecule | pIC50
COc1c(-c2ccc(O)c(O)c2)oc2cc(O)cc(OC)c2c1=O | 4.15
CC(=O)OC1CC2C(=O)OC(c3ccoc3)CC2(C)C2CC3CC(C(=O)O3)C12 (stereo not shown) [Compound 1, 8-epidiosbulbin E acetate] | < 4.10
CC(=O)OC1CC2(O)C(=O)OC(c3ccoc3)CC2(C)C2CC3CC(C(=O)O3)C12 (stereo not shown) | < 4.10
O=c1c(O[C@@H]2O[C@H](CO)[C@H](O)[C@H](O)[C@H]2O)c(-c2ccc(O)c(O)c2)oc2cc(O)cc(O)c12 [Compound 14, quercetin-3-O-β-D-galactopyranoside] | 4.16
Oc1cc(O)c2c(c1)O[C@H](c1ccc(O)c(O)c1)[C@@H](O)C2 [Compound 5, (+)-catechin] | < 4.10
O=c1c(O[C@@H]2O[C@H](CO)[C@@H](O)[C@H](O)[C@H]2O)c(-c2ccc(O)c(O)c2)oc2cc(O)cc(O)c12 [Compound 13, quercetin-3-O-β-D-glucopyranoside] | < 4.10
Oc1cc(O)cc(CCc2ccc(O)cc2O)c1 [Compound 9, 2,4,3′,5′-tetrahydroxybibenzyl] | 4.23
NC(=O)NC1NC(=O)NC1=O (stereo not shown) | < 4.10
O=c1c(O)c(-c2ccc(O)cc2)oc2cc(O)cc(O)c12 | < 4.10
O=c1c(O)c(-c2ccc(O)c(O)c2)oc2cc(O)cc(O)c12 | 4.29

For each of the molecules below, state pIC50.
1. CCC(C(C)C)C(C)CC(C)C1CCC2C3C=CC4CC(OC5OC(CO)C(O)C(O)C5O)CCC4(C)C3CCC12C (stereo not shown)
2. O=c1c(O)c(-c2cc(O)c(O)c(O)c2)oc2cc(O)cc(O)c12
3. Oc1cc(O)c2c(c1)CCc1cc(O)c(O)cc1-2

Response:
1: < 4.10; 2: < 4.10; 3: < 4.10
